Just for reference, patent US20240025887A1 is where these values come from.

Target: NUAK2 (h) (Homo sapiens, UniProt Q9H093)
Construct: This assay was done radiometrically using full-length, recombinant enzyme; purchased Eurofins
Sequence (Q9H093 whole entry): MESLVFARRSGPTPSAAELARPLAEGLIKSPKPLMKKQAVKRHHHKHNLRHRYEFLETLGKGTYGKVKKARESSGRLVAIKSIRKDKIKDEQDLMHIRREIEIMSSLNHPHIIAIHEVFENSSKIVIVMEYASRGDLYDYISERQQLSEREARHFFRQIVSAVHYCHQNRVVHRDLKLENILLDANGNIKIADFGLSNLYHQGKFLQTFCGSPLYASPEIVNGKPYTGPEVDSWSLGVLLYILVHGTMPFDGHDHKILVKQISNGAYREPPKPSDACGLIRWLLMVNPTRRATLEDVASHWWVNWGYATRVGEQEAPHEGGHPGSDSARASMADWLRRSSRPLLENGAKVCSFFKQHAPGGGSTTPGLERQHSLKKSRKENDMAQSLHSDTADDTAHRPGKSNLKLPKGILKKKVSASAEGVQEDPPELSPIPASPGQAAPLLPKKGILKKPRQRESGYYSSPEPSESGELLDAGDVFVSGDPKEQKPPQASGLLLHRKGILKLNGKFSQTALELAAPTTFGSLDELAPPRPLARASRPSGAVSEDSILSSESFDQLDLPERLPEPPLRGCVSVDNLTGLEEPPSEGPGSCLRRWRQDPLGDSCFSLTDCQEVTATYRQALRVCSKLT
Test: NUAK2 enzymatic assay (radiometric, Eurofins)
Assay type: biochemical
Settings: NUAK2 selectivity over Aurora-A, ratio of IC50s
Please provide measured AUR-A (IC50, nM)/NUAK2 (IC50, nM) for the entries that follow.
Please give only the number in your answer, with no unit.

**Query** Quick one: AUR-A (IC50, nM)/NUAK2 (IC50, nM) of CN1CCN(c2ccc(Nc3ncc(Cl)c(Nc4ccsc4C(N)=O)n3)c(Cl)c2F)CC1 [Compound C-4, reference compound] ?
**Result** 50

**Query** Another compound to look at: NC(=O)c1sccc1Nc1nc(Nc2ccc(N3CCN4CCC[C@@H]4C3)cc2OC(F)F)ncc1Cl [Compound I-44]
**Result** 137

**Query** Another compound to look at: CN1CCN(c2ccc(Nc3ncc(Cl)c(Nc4ccsc4C(N)=O)n3)c(OC(F)F)c2)CC1 [Compound I-1]
**Result** 40

**Query** Another compound to look at: COc1cc(N2CCC(N3CCN(C)CC3)CC2)ccc1Nc1ncc(Cl)c(Nc2ccsc2C(N)=O)n1 [Compound C-3, reference compound]
**Result** 6

**Query** Another compound to look at: CN1CCN(c2ccc(Nc3ncc(Cl)c(Nc4ccsc4C(N)=O)n3)c(OC(F)F)c2F)CC1 [Compound I-42]
**Result** 86

**Query** Another compound to look at: COc1cc(N2CCN(C)CC2)ccc1Nc1ncc(Cl)c(Nc2ccsc2C(N)=O)n1 [Compound C-1, reference compound]
**Result** 6

**Query** Another compound to look at: CN1CCN(C2CCN(c3ccc(Nc4ncc(Cl)c(Nc5ccsc5C(N)=O)n4)c(OC(F)F)c3)CC2)CC1 [Compound I-41]
**Result** 30

**Query** Another compound to look at: CC(C)Oc1cc(N2CCN(C)CC2)ccc1Nc1ncc(Cl)c(N[C@@H]2CCCC[C@@H]2C(N)=O)n1 [Compound C-6, reference compound]
**Result** 14

**Query** Another compound to look at: COc1c(Nc2ncc(Cl)c(Nc3ccsc3C(N)=O)n2)ccc(N2CCN(C)CC2)c1F [Compound C-2, reference compound]
**Result** 71

**Query** Another compound to look at: CN1CCN(c2ccc(Nc3ncc(Cl)c(N[C@@H]4CCCC[C@H]4C(N)=O)n3)c(OC(F)F)c2)CC1 [Compound I-82]
**Result** 176

**Query** Another compound to look at: Cc1c(Nc2ncc(Cl)c(Nc3ccsc3C(N)=O)n2)ccc(N2CCN(C)CC2)c1F [Compound C-5, reference compound]
**Result** 14
